- Species: Mus musculus
- ASSAY_TEXT: Antitumor activity against B16 melanoma cells in mice. Activity is expressed as optimal effective dose.
- Type: functional
Catalogue of compounds with associated Dose
EXPERIMENTAL_ENDPOINT: Dose (mg/kg)

• COc1ccc(S(=O)(=O)NN(C)S(=O)(=O)c2ccc(C)cc2)cc1 = 100
• Cc1ccc(S(=O)(=O)N(C)NS(=O)(=O)c2ccc(Cl)cc2)cc1 = 50
• Cc1ccc(S(=O)(=O)NN(C)S(=O)(=O)c2ccc(I)cc2)cc1 = 50
• CN(NS(=O)(=O)c1ccccc1)S(=O)(=O)Cc1ccccc1 = 50
• CCS(=O)(=O)NN(C)S(=O)(=O)c1ccc(Cl)cc1 = 10
• CN(NS(=O)(=O)c1ccccc1)S(=O)(=O)c1ccccc1 = 100
• CN(NS(=O)(=O)c1ccc2ccccc2c1)S(=O)(=O)c1ccc(Cl)cc1 = 50
• COc1ccc(S(=O)(=O)N(C)NS(=O)(=O)c2ccc(C)cc2)cc1 = 100
• CN(NS(C)(=O)=O)S(=O)(=O)Cc1ccccc1 = 30
• CN(NS(=O)(=O)c1ccc(Br)cc1)S(=O)(=O)c1ccccc1 = 50
• CN(NS(C)(=O)=O)S(=O)(=O)c1ccc2ccccc2c1 = 20
• CN(NS(C)(=O)=O)S(=O)(=O)c1ccc(I)cc1 = 40
• COc1ccc(S(=O)(=O)N(CCCl)NS(=O)(=O)c2ccccc2)cc1 = 12.5
• COc1ccc(S(=O)(=O)N(CCCl)NS(C)(=O)=O)cc1 = 10
• CCS(=O)(=O)NN(C)S(=O)(=O)c1ccc(C)cc1 = 50
• CN(NS(=O)(=O)/C=C/c1ccccc1)S(=O)(=O)c1ccc(Cl)cc1 = 50
• Cc1ccc(S(=O)(=O)N(C)NS(=O)(=O)c2ccc([N+](=O)[O-])cc2)cc1 = 100
• Cc1ccc(S(=O)(=O)N(C)NS(C)(=O)=O)cc1 = 10
• COc1ccc(S(=O)(=O)NN(C)S(=O)(=O)c2ccccc2)cc1 = 50
• COc1ccc(S(=O)(=O)NN(C)S(=O)(=O)c2ccc(OC)cc2)cc1 = 100
• CCS(=O)(=O)NN(C)S(=O)(=O)c1ccc(I)cc1 = 30
• Cc1ccc(S(=O)(=O)NN(C)S(C)(=O)=O)cc1 = 60
• CN(NS(=O)(=O)c1ccc2ccccc2c1)S(=O)(=O)c1ccccc1 = 50
• Cc1ccc(S(=O)(=O)NN(C)S(=O)(=O)c2ccc(C)cc2)cc1 = 150
• Cc1ccc(S(=O)(=O)NN(C)S(=O)(=O)c2ccc(Cl)cc2)cc1 = 50
• CN(NS(=O)(=O)c1ccc(Cl)cc1)S(=O)(=O)Cc1ccccc1 = 50
• CN(NS(=O)(=O)c1ccccc1)S(=O)(=O)c1ccc2ccccc2c1 = 50
• Cc1ccc(S(=O)(=O)N(C)NS(=O)(=O)c2ccccc2)cc1 = 150
• CN(NS(=O)(=O)c1ccc(Cl)cc1)S(=O)(=O)c1ccc(Cl)cc1 = 50
• COc1ccc(S(=O)(=O)NN(C)S(=O)(=O)Cc2ccccc2)cc1 = 150
• Cc1ccc(S(=O)(=O)NN(C)S(=O)(=O)Cc2ccccc2)cc1 = 50
• CN(NS(=O)(=O)c1ccc(Cl)cc1)S(=O)(=O)c1ccccc1 = 100
• Cc1ccc(S(=O)(=O)NN(C)S(=O)(=O)c2ccccc2)cc1 = 50

Data provenance is ChEMBL document CHEMBL1123555.
